# Tested on: Plasmodium falciparum
# Protocol details: NOVARTIS: Inhibition of Plasmodium falciparum W2 (drug-resistant) proliferation in erythrocyte-based infection assay
# Format: functional, organism-based
# Test settings: Plasmodium falciparum, W2; read-out: EC50
pEC50: −log10 of the molar value.
Rule: Y for pEC50 not less than 6, N for anything less.

Some solved cases for reference:
[[record]]
compound = "CC(C)N(CC(=O)Nc1cc(C(C)(C)C)nn1-c1ccc(Cl)cc1)C(=O)c1cccc2ccccc12"
group_label = "N"

[[record]]
compound = "CC(C)N(CC(=O)Nc1cc(C(C)(C)C)nn1-c1ccc(Cl)c(Cl)c1)C(=O)c1ccc2ccccc2c1"
group_label = "N"

[[record]]
compound = "COC1=C(Nc2cccc(C(F)(F)F)c2)C(=O)c2ccccc2C1=O"
group_label = "Y"

[[record]]
compound = "CC1=C(C(=O)Nc2ccccn2)C(c2ccc(O)cc2)n2ncnc2N1 (centres undefined)"
group_label = "Y"

[[record]]
compound = "c1ccc(CCNC2CCN(Cc3ccccc3)CC2)cc1"
group_label = "Y"


Please indicate if the recorded pEC50 for CCCCCCN(C(=O)c1ccc(C(C)(C)C)cc1)C(CC)c1nc2ccccc2c(=O)n1-c1ccccc1OC (centres undefined) meets or exceeds 6.
Y

Say whether `COC(=O)c1c(-c2c(F)cccc2Cl)noc1C=CNc1ccc(OC)cc1` shows pEC50 of 6 or more.
N

Determine whether this compound has pEC50 no lower than 6: `Nc1nc(N)c2nc(CCc3ccc(C(=O)N[C@H](CCC(=O)O)C(=O)O)cc3)cnc2n1`
Y

Does CC12CCC(CN(CC(O)Cn3c4ccc(Br)cc4c4cc(Br)ccc43)C1)C2(C)C (centres undefined) have a reported pEC50 of at least 6?
N

###

Exercise: state measured CC50 for each of the molecules provided.
# Protocol details: NOVARTIS: Cytotoxicity against human hepatocellular carcinoma cell line (Huh7)
# Assay type: toxicity, cell-based, Huh-7
# Test settings: Huh7 cells (hepatocellular carcinoma cell line)

Worked cases, CC50 given:
[[record]]
chemical_string = "Cc1cnc(CNc2cc(-c3ccccn3)nc(-c3ccccn3)n2)nc1"
measure_name = "CC50"
result = "> 10 µM"

[[record]]
chemical_string = "CC(=O)N(C1=C(N(C)C)C(=O)c2ccccc2C1=O)c1cccc(Cl)c1"
measure_name = "CC50"
result = "3.18 µM"

[[record]]
chemical_string = "COC(=O)c1c(NC(=O)c2ccc(S(=O)(=O)N3CCOCC3)cc2)sc2c1CCN(C(C)=O)C2"
measure_name = "CC50"
result = "> 100 µM"

[[record]]
chemical_string = "Cc1sc2ncn(CC(=O)N(C)Cc3ccccc3)c(=O)c2c1S(=O)(=O)N1CCOCC1"
measure_name = "CC50"
result = "> 10 µM"

[[record]]
chemical_string = "O=C(CCl)Nc1ccc(Cl)cc1"
measure_name = "CC50"
result = "5.7 µM"


// below: CC50 requested for another molecule
I am curious: what CC50 value has been reported for `Cc1nc2ccccc2c(=O)n1-c1ccc([N+](=O)[O-])cc1` ?
> 10 µM

###

Exercise: for every item that follows, state its recorded CC50.
# Protocol details: NOVARTIS: Cytotoxicity against human hepatocellular carcinoma cell line (Huh7)
# Assay type: toxicity, cell-based, Huh-7
# Test settings: Huh7 cells (hepatocellular carcinoma cell line)

# annotated cases, reported CC50 shown
[[record]]
molecule = "N#Cc1nc(-c2ccccc2)c(-c2ccc(-c3nc(C#N)c(C#N)nc3-c3ccccc3)cc2)nc1C#N"
measure_name = "CC50"
result = "> 10 µM"

[[record]]
molecule = "COc1ccc(C(=O)N2C(C(=O)Nc3ccc(C)cc3)CSC2c2ccc(C(C)(C)C)cc2)cc1 (stereo not given)"
measure_name = "CC50"
result = "> 2.97 µM"

[[record]]
molecule = "COc1ccc(C(=O)Oc2ccccc2-c2nc3ccccn3c2NC(C)(C)CC(C)(C)C)cc1"
measure_name = "CC50"
result = "> 10 µM"

[[record]]
molecule = "CCCN(CCC)S(=O)(=O)c1ccc(C(=O)Nc2ccccc2C(=O)Oc2ccc3c(c2)c(C(=O)OCC)c(C)n3-c2ccccc2)cc1"
measure_name = "CC50"
result = "> 100 µM"

[[record]]
molecule = "COc1ccc(OCCOCCN2CCN(C)CC2)cc1"
measure_name = "CC50"
result = "> 100 µM"

[[record]]
molecule = "Cc1ccn2c(NC(C)(C)CC(C)(C)C)c(-c3ccccc3OC(=O)c3ccc(F)cc3)nc2c1"
measure_name = "CC50"
result = "> 10 µM"


Each molecule below has a recorded value; state its CC50.
1. CCOc1ccc(NC(=O)C(C)Sc2nc3ccccc3[nH]2)cc1 (stereo not given)
2. O=C(COC(c1cccs1)c1cccnc1Cl)N1CCN(C(=O)Nc2ccccc2)CC1 (stereo not given)
3. Cc1nc(N2CCN(C)CC2)c2c(C)c(C(=O)NCCN(C)C)sc2n1

1: > 100 µM; 2: > 100 µM; 3: > 10 µM

###

# Protocol details: NOVARTIS: Cytotoxicity against human hepatocellular carcinoma cell line (Huh7)
# Type: toxicity, cell-based, Huh-7
# Test settings: Huh7 cells (hepatocellular carcinoma cell line)
Measure name: CC50

Below, each entry is followed by its recorded CC50 result.
[[record]]
molecule = "COc1ccc(C2=C/C(=C/c3cccc(OC)c3OC)C(=O)O2)cc1OC"
result = "> 10 µM"

[[record]]
molecule = "COC(=O)c1ccc(C2C3=C(O)CC(c4ccc(F)cc4)CC3=Nc3ccccc3N2C(=O)c2ccccc2)cc1 (centres undefined)"
result = "> 100 µM"

[[record]]
molecule = "Cc1ccccc1/C=C1/SC(=Nc2ccccc2)NC1=O"
result = "> 10 µM"

[[record]]
molecule = "COCCCNC(=O)/C=C/c1ccc(C(C)C)cc1"
result = "> 13.5 µM"

[[record]]
molecule = "O=C(c1ccncc1)N1N=C(c2c(-c3ccccc3)c3cc(Br)ccc3[nH]c2=O)CC1c1ccccc1 (centres undefined)"
result = "8.7 µM"


Working through the 2 molecules below one at a time, give CC50 for each.
1. Cc1ccc(Cn2c(SCc3ccc(C(=O)NCCc4ccccc4)cc3)nc3ccncc32)cc1
2. O=C(c1ccc(-n2c(SCc3ccc(Cl)cc3)nc3ccccc3c2=O)cc1)N1CCOCC1

1: > 100 µM; 2: > 100 µM

Batch: CC50 for all items listed.
1. CN1CCN(Nc2ccnc3cc4ccccc4cc23)CC1
2. CCN1C(=O)N(CC(N)=O)C(=O)C12CCN(Cc1ccc(N(C)c3ccccc3)cc1)CC2
3. CN1CCN(c2nc(NN=Cc3cc(I)ccc3O)nc(Nc3ccc([N+](=O)[O-])cc3)n2)CC1
4. CC(C)CC(=O)OC1C(N2CCCCC2)c2c(ccc(/C=C/C(=O)N3CCCCC3)c2O)OC1(C)C (centres undefined)
5. CN(C)c1ccc(C(=Cc2cc(-c3ccccc3)cc(-c3ccccc3)[o+]2)c2ccc(N(C)C)cc2)cc1

1: > 10 µM; 2: 57.8 µM; 3: 47.7 µM; 4: > 10 µM; 5: 14.4 µM

###

# Protocol details: NOVARTIS: Cytotoxicity against human hepatocellular carcinoma cell line (Huh7)
# Assay type: toxicity, cell-based, Huh-7
# Test settings: Huh7 cells (hepatocellular carcinoma cell line)
Exercise: for every item that follows, state its recorded CC50.

[[record]]
chemical_string = "COc1ccc2c(C)nc(NC(=N)N)nc2c1"
result = "66.3 µM"

[[record]]
chemical_string = "CC(C=NNC(N)=S)=NNC(N)=S"
result = "> 100 µM"

[[record]]
chemical_string = "COc1ccc2nc(Nc3nc(-c4ccccn4)cs3)sc2c1"
result = "7.31 µM"

[[record]]
chemical_string = "COc1ccc(C(=O)C(C#N)=CNC2CCN(Cc3ccccc3)CC2)cc1"
result = "24.8 µM"

[[record]]
chemical_string = "O=C1c2ccccc2-c2nnc(-c3ccccc3)cc21"
result = "> 10 µM"


GET /values?readout=CC50&item= `Clc1ccc(OCc2nc3ccccc3n2CCc2ccccc2)cc1`
> 10 µM

###

Hi there, I'd appreciate the recorded CC50 for every entry that follows.
# Protocol details: NOVARTIS: Cytotoxicity against human hepatocellular carcinoma cell line (Huh7)
# Assay type: toxicity, cell-based, Huh-7
# Test settings: Huh7 cells (hepatocellular carcinoma cell line)

Known CC50 results, listed for orientation:
[[record]]
compound = "O=C(NCCc1nc(-c2cccnc2)n[nH]1)C12CC3CC(CC(C3)C1)C2"
result = "> 10 µM"

[[record]]
compound = "CC(=O)Nc1ccc2nc(C)sc2c1"
result = "> 10 µM"

[[record]]
compound = "CCCCCCCC(=O)N(C)CCCNc1ccnc2cc(Cl)ccc12"
result = "> 9.69 µM"


Batch request: CC50 per item, same order as input.
1. CCN(c1ccc(F)cc1)S(=O)(=O)c1ccc2[nH]cc(C(=O)NCCC(C)C)c(=O)c2c1
2. CCOc1ccc2nc(C)cc(Nc3ccc(Br)cc3)c2c1
3. COc1ccc(NC2=C(c3ccc(OC)cc3)C(=O)c3ccccc32)cc1
4. CCOC(=O)c1c(CC)nc(-c2ccccc2)nc1C(=O)N1CCC(C)CC1
5. O=C(NCCCCNc1ccnc2cc(Cl)ccc12)C(c1ccccc1)c1ccccc1
6. O=[N+]([O-])c1ccc(C=NN2CCN(Cc3ccccc3Cl)CC2)cc1

1: > 10 µM; 2: 7.29 µM; 3: > 100 µM; 4: 4.06 µM; 5: > 8.21 µM; 6: > 100 µM
